Data origin, for the record: the kinase profiling compilation of Christmann-Franck et al. (2016)

Reported residual activity values for a set of compounds
Biological target: PRKCZ (human) (UniProt Q05513)
Sequence (Q05513 whole entry, looked up): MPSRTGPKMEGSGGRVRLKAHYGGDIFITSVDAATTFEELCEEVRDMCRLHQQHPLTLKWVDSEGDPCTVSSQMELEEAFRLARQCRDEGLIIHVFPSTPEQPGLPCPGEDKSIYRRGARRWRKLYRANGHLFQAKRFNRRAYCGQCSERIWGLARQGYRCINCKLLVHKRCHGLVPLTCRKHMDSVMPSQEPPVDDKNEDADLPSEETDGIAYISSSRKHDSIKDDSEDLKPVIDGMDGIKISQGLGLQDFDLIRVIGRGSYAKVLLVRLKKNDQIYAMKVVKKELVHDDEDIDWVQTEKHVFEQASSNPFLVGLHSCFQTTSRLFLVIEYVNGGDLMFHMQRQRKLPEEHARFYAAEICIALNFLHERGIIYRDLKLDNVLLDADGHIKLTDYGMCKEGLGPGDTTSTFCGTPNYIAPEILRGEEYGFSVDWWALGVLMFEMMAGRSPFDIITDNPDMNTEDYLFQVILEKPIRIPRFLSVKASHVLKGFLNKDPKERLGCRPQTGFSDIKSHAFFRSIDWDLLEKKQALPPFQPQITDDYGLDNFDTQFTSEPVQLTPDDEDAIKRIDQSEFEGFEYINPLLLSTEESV
Experiment: radiometric filter-binding kinase assay, Kinase HotSpot
Details: compound 0.5 µM; ATP 10 µM
Please respond with the number in % and leave the unit unwritten.

Recorded residual activity (compound O=c1c(-c2ccc(F)cc2)c(-c2ccncc2)[nH]n1-c1ccc(Cl)cc1 ): 99

Notebook: COc1cc2c(N3CCN(C(=O)Nc4ccc(OC(C)C)cc4)CC3)ncnc2cc1OCCCN1CCCCC1 , residual activity read as 103

Form: compound = N/C(=N\N=C/c1ccc(-c2cccc([N+](=O)[O-])c2)o1)N[N+](=O)[O-] ; residual activity = 90.1

---

Target: PRKX (human)
Experiment: radiometric filter-binding kinase assay, Kinase HotSpot
Details: compound 0.5 µM; ATP 10 µM
VALUE TYPE: residual activity (%)
Give the number; % is assumed, so skip it.

COc1cc2ncnc(Nc3ccc(O)c(Br)c3)c2cc1OC	89.2
Nc1ncnc2c1cnn2-c1ccccc1	95.3
O=C1NC(=O)c2c1c1c3ccccc3[nH]c1c1[nH]c3cc(Br)ccc3c21	85.1

The compound O=c1c(-c2ccc(F)cc2)c(-c2ccncc2)[nH]n1-c1ccc(Cl)cc1 showed residual activity equal to 97

Form: compound = COc1cccc(-c2cc(=O)c3ccccc3o2)c1N ; residual activity = 101

Summary for this compound, Cn1cc(/C=C2\C(=O)Nc3ccc(S(N)(=O)=O)cc32)c2ccccc21 : residual activity is 81

---

Target: ULK2 (human)
Assay: radiometric filter-binding kinase assay, Kinase HotSpot
Settings: compound 0.5 µM; ATP 10 µM
Entry flag: yes (1) if residual activity reaches 90%; no (0) if it does not.

CCc1nc(-c2ccc(OC)cc2)[nH]c1-c1ccncc1	yes (1)
CCOc1cc2ncnc(Nc3cccc(Br)c3)c2cc1OCC	no (0)
N/C(=N\N=C/c1ccc(-c2cccc([N+](=O)[O-])c2)o1)N[N+](=O)[O-]	no (0)

Let's switch to this compound now.
[Q] I'd appreciate it if you could say whether O=C1NC(=O)c2c1c1c3ccccc3[nH]c1c1[nH]c3cc(Br)ccc3c21 has residual activity at least equal to 90%.
[A] no (0)

---

Target: NTRK2 (human) (UniProt Q16620)
Sequence (Q16620 whole entry, looked up): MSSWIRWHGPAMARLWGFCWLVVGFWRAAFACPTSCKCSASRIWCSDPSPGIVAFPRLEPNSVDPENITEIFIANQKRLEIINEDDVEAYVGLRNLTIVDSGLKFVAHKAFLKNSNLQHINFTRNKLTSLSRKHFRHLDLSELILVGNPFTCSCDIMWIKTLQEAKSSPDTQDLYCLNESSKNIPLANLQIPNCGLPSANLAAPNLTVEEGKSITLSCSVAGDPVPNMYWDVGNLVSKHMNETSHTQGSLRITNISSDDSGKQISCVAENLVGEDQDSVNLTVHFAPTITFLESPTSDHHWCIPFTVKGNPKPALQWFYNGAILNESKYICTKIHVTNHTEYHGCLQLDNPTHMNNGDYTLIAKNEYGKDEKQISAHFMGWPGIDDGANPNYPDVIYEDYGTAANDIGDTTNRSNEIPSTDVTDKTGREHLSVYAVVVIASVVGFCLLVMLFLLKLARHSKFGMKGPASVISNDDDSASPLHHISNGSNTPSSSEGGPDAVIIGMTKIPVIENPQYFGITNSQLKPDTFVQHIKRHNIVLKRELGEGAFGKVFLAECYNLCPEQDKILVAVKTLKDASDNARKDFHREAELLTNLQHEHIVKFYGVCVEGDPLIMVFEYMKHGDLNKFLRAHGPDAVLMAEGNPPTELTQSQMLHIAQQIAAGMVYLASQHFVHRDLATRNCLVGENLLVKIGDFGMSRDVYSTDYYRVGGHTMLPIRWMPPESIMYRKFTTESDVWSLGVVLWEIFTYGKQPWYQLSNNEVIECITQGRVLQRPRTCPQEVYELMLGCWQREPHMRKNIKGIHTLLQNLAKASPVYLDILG
Assay: radiometric filter-binding kinase assay, Kinase HotSpot
Conditions: compound 0.5 µM; ATP 10 µM
VALUE TYPE: residual activity

For reference, reported residual activity for COc1cc2ncnc(Nc3ccc(O)c(Br)c3)c2cc1OC stands at 94.8%

Looking up COc1cccc(-c2cc(=O)c3ccccc3o2)c1N , I see its residual activity listed as 65.4%

response.value for N#CCCc1ccc2c(c1)-c1[nH]c3ccc([N+](=O)[O-])cc3c1CC(=O)N2 (field: residual activity) = 86.4%

residual activity measured on O=c1c2ccccc2[nH]c(=S)n1CCN1CCC(=C(c2ccc(F)cc2)c2ccc(F)cc2)CC1 = 106%

Kindly note the recorded residual activity for CCOc1cc2ncnc(Nc3cccc(Br)c3)c2cc1OCC , which is 105%

For record N/C(=N\N=C/c1ccc(-c2cccc([N+](=O)[O-])c2)o1)N[N+](=O)[O-] the listed residual activity is 82.4%

The molecule O=C(c1ccccc1)c1ccc(N2CCOCC2)cc1O showed residual activity equal to 92.7%

Entry N#C/C(=C1/Nc2ccccc2S1)c1ccnc(NCCc2cccnc2)n1 , residual activity reported as 93.2%

// field: residual activity; key: O=S(=O)(NCCNC/C=C/c1ccc(Br)cc1)c1cccc2cnccc12 ; value = 95.1%

The molecule identified as COc1cc2c(Nc3ccc(Br)cc3F)ncnc2cc1OCC1CCN(C)CC1 registered its residual activity at 93.2%
